# METHOD_DESCRIPTION: soluble on expression in E. coli; label from the status in PepcDB or PDB records

- SEQUENCE_CODE: "MSIAVGMIETLGFPAVVEAADSMVKAARVTLVGYEKIGSGRVTVIVRGDVSEVQASVTAGIENIRRVNGGEVLSNHIIARPHENLEYVLPIRYTEAVEQFREIVNPSIIRRAAALEHHHHHH"
  soluble on expression in E. coli: "soluble"
- SEQUENCE_CODE: "SNAMKKKDMNKQVKIQDAVAAIILAEGPAGVSTTKVAKRVGIAQSNVYLYFKNKQALIDSVYARETNRILSTTDLDRLSDSTIDVTTRIRLYVQQVYDYSLANPDSLTIIQQIKALNGQGMTISAADADPNNIVANLLTAAIDAKVIKQLPVSLHMGVVFSTIHTHTTNISKGRYAQDQYTFGDIFQMIWDAMKQD"
  soluble on expression in E. coli: "soluble"

----------
# METHOD_DESCRIPTION: soluble on expression in E. coli; label from the status in PepcDB or PDB records

- SEQUENCE_CODE: "MQGDAAEKARLRGERLAARDALTPAERQQKSLSMTAHGVSGIPFAPGTVISGFMPIRSEVDTRPLMEALRARDGRLVLPVVLDQETIVFRVFEADTPLVKTGFGTTGPGEDAEVLDPHILLVPLSVFDGEGQRIGYGAGHYDRAIARLHAKGRQPVLIGIAFDCQEVASVPAEPHDVALHAVLTESGLRWFSAQRLEHHHHHH"
  soluble on expression in E. coli: "not soluble"
- SEQUENCE_CODE: "MAHHHHHHMKDGDWERRNRLKVYEGIYHVFIRDFKRGSELLLDSISTFASSELMDFNEFILITVVASLPVLSRSELKQQILDSPEVRSANIKDVFHLITVIYNCRYKEVFSALDTVCQHLRGIVYLSQHVNYFFREVRVLVFTQFLDSYSSVTLNSMSAAFGIPPPVLDSMLGTLISNERIACKMDRVSDSITTYRGDTTNFDYHRIVKNGDLLLNRIQKLSRLAEM"
  soluble on expression in E. coli: "not soluble"
- SEQUENCE_CODE: "MARKTKEDTQATREGILDAAEACFHEHGVARTTLEMIGARAGYTRGAVYWHFKNKSEVLAAIVERVHLPFMQELERTSTDQRDTPVHDLRAVMIHSFIELSEDERLRKTMEIMLRSDASANTRVLTEMQQAGFRDALDRMERALRRARDLGQLREGADPKIAARMLHATVLGVLHGAMVEPELMDLKRDGMLALDMTLAAYVKDGVFVPGTVPEPLPEA"
  soluble on expression in E. coli: "soluble"
- SEQUENCE_CODE: "MQDLLTLRFLDTYDNILFIGNSGVGKTHLAVSIGLECIDRGLSCLFITSTELVNRLIRAHKRGTSETMLKKYSGYSVLIIDEVGYLPFSKEGSNLLFQLINMRYERKSTIVTTNIPLSQWSEIFGNKKLTNALLDRLVHHSKLIQITGPSYRMKSYSENKEVKSLEHHHHHH"
  soluble on expression in E. coli: "soluble"

----------
# METHOD_DESCRIPTION: soluble on expression in E. coli; label from the status in PepcDB or PDB records
MEASUREMENT_TYPE: soluble on expression in E. coli

- SEQUENCE_CODE: "MGSDKIHHHHHHMPTVKLTKNITIMTGSPNTLIYDNRVVIDLGGKNSSVDINAEVQLATHGHADHIAGLLKKDAKIRYLPKEDYWSLTLMGRRAMIYGCSSKDSDIFTFDYVKENIESIDIEVRTSEIEVIKLPGHTPGHSGYIVDNVLYAGDAFFGEKVLEGFSVPFYTDFWTALESLNKVKELAKSVNNIVISHGPVYTNKNKMVSILESNIIYAQNLIGKILDMLSNNELTVEEIVVKLKQDLTPSNVLLNSVVVRSILFGLENIEYNVSQKGLVFRRRVH"
  RESULT: "not soluble"
- SEQUENCE_CODE: "MELRHIRYFLAVAEERHFTRAATKLGIGQPPLSQQIKDLERELGAQLFRRVPHGAELTEAGKAFYDVVKGMPATATRAVLAAQRVARGESGVLRVGFTASAAFNSVVPGAIRTFKRAYPDVRLQLEEGNTTQLADELNEGSLDVAFLRPGFTGNERFQLRLLSEEPMVIVLAETHPAAACKQIALSILKDEFFLLFPREIGLSLYDAVIKACGKAGFEPKIGQLVPQISSVINLVSAEMGVSMVPDSMRQVNVKGVVYRPVADQMPVAKLALAYRRGDTSPTLRNFILKVTG"
  RESULT: "not soluble"
